The measured values listed here are drawn from ChEMBL document CHEMBL4425137.

- ASSAY_NAME: physchem
- REPORTED_CONDITIONS: octanol/water
- Description: Lipophilicity, log D of the compound
Label Condition met when logD is strictly below 0.3; otherwise label Condition not met.

[[record]]
compound = "FC(F)(F)c1cccc(Cc2cc3c(nn2)CCNCC3)c1"
category = "Condition not met"

[[record]]
compound = "CC(c1ccccc1)c1cc2c(nn1)CCNCC2 (stereo in doubt; 15g)"
category = "Condition not met"

[[record]]
compound = "O=c1[nH]n(Cc2ccccc2)c2c1CCNCC2"
category = "Condition met"

[[record]]
compound = "Clc1ccccc1Cc1cc2c(nn1)CCNCC2"
category = "Condition not met"

[[record]]
compound = "c1ccc(Cc2cc3c(nn2)CCNCC3)cc1"
category = "Condition met"

